Hello, the source for this data is patent US20080044360A1, in case you need it.

measurement-target: T1, rat collagen, acid soluble, type I, rat tail (Upstate 08-115) (rat, UniProt P02454 152-1207; P02466 86-1125)
T1 construct: tissue extract, gelled and dried in wells; also called dried rat collagen
T1 sequence (P02454 152-1207, chain 1 of 2): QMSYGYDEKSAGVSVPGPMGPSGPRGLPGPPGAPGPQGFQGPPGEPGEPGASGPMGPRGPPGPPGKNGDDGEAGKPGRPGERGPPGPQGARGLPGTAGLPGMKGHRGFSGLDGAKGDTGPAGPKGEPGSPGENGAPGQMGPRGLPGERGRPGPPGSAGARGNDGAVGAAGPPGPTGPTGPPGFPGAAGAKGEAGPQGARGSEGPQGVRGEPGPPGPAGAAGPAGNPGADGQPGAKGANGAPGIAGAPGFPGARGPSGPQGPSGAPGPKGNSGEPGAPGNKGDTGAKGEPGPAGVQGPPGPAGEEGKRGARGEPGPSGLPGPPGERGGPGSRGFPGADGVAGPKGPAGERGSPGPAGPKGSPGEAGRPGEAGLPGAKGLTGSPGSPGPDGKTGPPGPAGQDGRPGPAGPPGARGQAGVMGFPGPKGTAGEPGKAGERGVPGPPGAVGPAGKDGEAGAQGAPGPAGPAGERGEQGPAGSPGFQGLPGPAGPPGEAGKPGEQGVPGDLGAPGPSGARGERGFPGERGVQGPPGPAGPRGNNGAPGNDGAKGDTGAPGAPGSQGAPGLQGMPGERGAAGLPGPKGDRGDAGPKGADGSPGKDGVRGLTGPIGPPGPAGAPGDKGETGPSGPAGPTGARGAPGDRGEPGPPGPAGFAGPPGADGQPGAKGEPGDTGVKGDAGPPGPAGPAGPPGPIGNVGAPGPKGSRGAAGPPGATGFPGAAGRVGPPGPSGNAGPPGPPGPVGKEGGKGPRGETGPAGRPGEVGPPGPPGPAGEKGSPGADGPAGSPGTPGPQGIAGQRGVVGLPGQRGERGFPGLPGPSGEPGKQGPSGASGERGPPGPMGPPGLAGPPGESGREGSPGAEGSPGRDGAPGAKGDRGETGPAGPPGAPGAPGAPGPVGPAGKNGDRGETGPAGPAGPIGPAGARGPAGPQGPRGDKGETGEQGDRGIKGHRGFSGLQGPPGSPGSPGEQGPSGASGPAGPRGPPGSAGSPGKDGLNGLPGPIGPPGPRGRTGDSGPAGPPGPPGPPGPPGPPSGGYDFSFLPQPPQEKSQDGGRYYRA
T1 sequence (P02466 86-1125, chain 2 of 2): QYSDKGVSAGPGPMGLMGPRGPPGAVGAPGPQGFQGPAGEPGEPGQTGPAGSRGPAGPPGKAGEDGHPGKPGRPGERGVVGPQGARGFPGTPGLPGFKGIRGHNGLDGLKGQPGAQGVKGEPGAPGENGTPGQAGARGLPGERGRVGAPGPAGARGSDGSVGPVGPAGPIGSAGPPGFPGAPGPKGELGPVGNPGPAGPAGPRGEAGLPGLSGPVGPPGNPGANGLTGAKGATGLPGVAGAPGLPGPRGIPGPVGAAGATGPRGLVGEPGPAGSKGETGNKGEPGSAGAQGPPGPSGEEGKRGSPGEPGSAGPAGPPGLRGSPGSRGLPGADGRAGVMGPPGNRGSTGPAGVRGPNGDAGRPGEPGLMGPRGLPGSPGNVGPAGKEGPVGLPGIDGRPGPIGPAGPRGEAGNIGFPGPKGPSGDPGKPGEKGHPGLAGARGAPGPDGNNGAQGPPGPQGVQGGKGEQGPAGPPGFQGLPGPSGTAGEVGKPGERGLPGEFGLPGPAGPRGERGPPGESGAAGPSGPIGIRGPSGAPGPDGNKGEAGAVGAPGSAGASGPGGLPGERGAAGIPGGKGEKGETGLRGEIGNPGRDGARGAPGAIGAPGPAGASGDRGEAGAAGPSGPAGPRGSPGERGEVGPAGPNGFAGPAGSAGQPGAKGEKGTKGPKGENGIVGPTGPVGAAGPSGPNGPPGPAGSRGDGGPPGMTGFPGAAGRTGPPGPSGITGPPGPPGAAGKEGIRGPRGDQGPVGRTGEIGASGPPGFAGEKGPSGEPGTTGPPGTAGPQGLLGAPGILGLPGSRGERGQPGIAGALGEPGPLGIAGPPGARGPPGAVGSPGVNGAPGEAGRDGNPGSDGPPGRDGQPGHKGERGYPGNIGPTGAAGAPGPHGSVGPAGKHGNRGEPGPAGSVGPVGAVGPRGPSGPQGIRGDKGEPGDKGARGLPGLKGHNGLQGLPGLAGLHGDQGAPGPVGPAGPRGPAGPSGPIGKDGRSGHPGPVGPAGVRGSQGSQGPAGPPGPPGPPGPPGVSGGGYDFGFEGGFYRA
method-description: dried collagen assay
Bridge positions count the residues as written; N and C are the ends. Square brackets hold non-standard residues; d marks the D form. Primed or numbered codes have the meaning given here. Side chains are listed from the residue outwards. Ends that are not written are not given here. Gd^T″ = GdDTPA-thiourea
Labelling field: enter satisfied if recorded % bound is less than 60%. Enter not satisfied if it equals or exceeds that cut-off.

Given {Gd^T″}-GQWHCYTLFPHHYCLYG (disulfide 5-14 (inferred)) [Compound ID 959] , is recorded % bound strictly lower than 60%?
not satisfied

State whether 60% exceeds % bound recorded for {Gd^T″}-GK([Gly-Gd^T″])WHCTTYFPHHYCVYG (disulfide 5-14 (inferred)) [Compound ID 942] .
not satisfied

For {Gd^T″}-GK([Gly-Gd^T″])WHCTTYFPHHYCLYYK(Gd^T″) (disulfide 5-14 (inferred); not fully specified (C-terminus)) [Compound ID 976] , is the recorded % bound below the cut-off of 60%?
satisfied

Find out if reported % bound for {Gd^T″}-GQWHCTTRFPHH[dR]CLYG (disulfide 5-14 (inferred); not fully specified (C-terminus)) [Compound ID 902] is less than 60%
satisfied
